Listed here: items and their measured TGI.
- System: ACHN renal
- Assay Name: NCI tumour cell line growth inhibition, 48 h
Reported Metric: TGI

[[record]]
compound = "C/C=C(\\C)c1cc(=O)c2c(C)cc3c(c2o1)C(=O)c1c(O)c(C2CC(C)(N(C)C)C(O)C(C)O2)cc(C2CC(N(C)C)C(O)C(C)O2)c1C3=O (configuration not stated)"
value = "0.504 µM"

[[record]]
compound = "Oc1[nH]c2ccccc2c1N=NC(=S)N1CCCCC1"
value = "5.97 µM"

[[record]]
compound = "C=C[C@@]1(C)CCC2(O)C(CCC3C2(C)CCC[C@@]3(C)COC(=O)CC(=O)OC)C1 (some centres not stated)"
value = "> 100 µM"

[[record]]
compound = "CCCCC1Cc2ccccc2-c2n1c1ccccc1[n+]2C (configuration not stated)"
value = "> 100 µM"

[[record]]
compound = "N#CC(c1ccc(Cl)cc1)c1c(O)nc2ccc(=N)cc-2n1O (configuration not stated)"
value = "> 100 µM"

[[record]]
compound = "COc1cc2cc[n+](C)c(Cc3ccccc3)c2cc1OC"
value = "> 100 µM"

[[record]]
compound = "COc1ccc(N)c(C(O)CCNC(C)=O)c1 (configuration not stated)"
value = "> 100 µM"

[[record]]
compound = "CCOC(=O)N1CCN(c2c(C)nc(C)[nH]c2=O)CC1"
value = "> 100 µM"

[[record]]
compound = "CC(C)(N)CO[C@H]1C[C@H]2CC[C@@]1(C)C2(C)C"
value = "95 µM"

[[record]]
compound = "COc1ccc(/C(CCl)=C(\\Nc2ccccc2)c2ccc(OC)c(OC)c2)cc1OC"
value = "> 100 µM"

[[record]]
compound = "Cc1ccc(NC(=O)CC/C(CC(=O)C(C)(C)C)=N/NC(=O)C(N)=O)cc1C"
value = "> 100 µM"

[[record]]
compound = "COC(=O)Nc1nc2ccc(Oc3ccc4nc(NC(=O)OC)[nH]c4c3)cc2[nH]1"
value = "> 100 µM"

[[record]]
compound = "Cc1c(/C=N/NC(=S)Nc2cccc(Cl)c2)c(=O)n(-c2ccccc2)n1C"
value = "37.5 µM"

[[record]]
compound = "N#Cc1nc(CSCc2ccccc2)oc1N"
value = "> 100 µM"

[[record]]
compound = "C=C(C)C#CC(O)(C(=O)OC1CCN(C)CC1)C(C)C (configuration not stated)"
value = "> 100 µM"

[[record]]
compound = "O=C1c2ccccc2NC(c2cc(Cl)cc(Cl)c2O)N1CCc1ccccn1 (configuration not stated)"
value = "> 100 µM"

[[record]]
compound = "CCSc1c(C)c2c(n(Cc3ccc(OC)cc3)c1=O)Cc1ccccc1C2"
value = "84.2 µM"

[[record]]
compound = "CC1=C(C)C(=O)C2=C(OCCCO2)C1=O"
value = "32.4 µM"

[[record]]
compound = "CC1C2=C(CC(C)(C)CC2=O)NC2=C1C(=O)CC(C)(C)C2"
value = "> 100 µM"

[[record]]
compound = "COC(=O)/C=C/c1cnc2c(c1)oc(=O)n2CCc1ccccn1"
value = "> 100 µM"

[[record]]
compound = "CN1CCN(c2ccc(-c3ccc4ncc(C#N)c(Nc5ccc(F)c(Cl)c5)c4c3)cc2)CC1"
value = "2.72 µM"

[[record]]
compound = "Cc1ccc(N/C(Sc2ccccc2)=C(/C(Cl)=C(Cl)Cl)[N+](=O)[O-])c(C)c1"
value = "> 100 µM"

